Target: T1, ANXA11 Ct (UniProt P50995 201-505)
T1 sequence: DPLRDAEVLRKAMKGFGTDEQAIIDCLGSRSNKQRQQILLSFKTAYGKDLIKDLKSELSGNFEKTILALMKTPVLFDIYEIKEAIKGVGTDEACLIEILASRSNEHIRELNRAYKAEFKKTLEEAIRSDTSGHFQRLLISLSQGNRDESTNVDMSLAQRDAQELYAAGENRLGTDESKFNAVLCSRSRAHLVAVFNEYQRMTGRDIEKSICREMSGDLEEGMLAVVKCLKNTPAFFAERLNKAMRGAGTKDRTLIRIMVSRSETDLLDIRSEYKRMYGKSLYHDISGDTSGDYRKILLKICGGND
Test: MST
test.readout: pKd
The scale used: pKd is minus the common logarithm of the concentration in molar units.

input: For the binder UUUUUUUUUU (ssRNA) [poly-U 10-mer RNA] , report pKd.
output: 5.45
